Origin of the recorded values: patent US20250368734A1

target: T1, human GPRC5D (human, UniProt Q9NZD1 1-345); assay: FACS, OPM-2 cells
T1 construct: whole, on cells; also called hGPRC5D; G-protein coupled receptor family C group 5 member D
T1 sequence (Q9NZD1 whole entry): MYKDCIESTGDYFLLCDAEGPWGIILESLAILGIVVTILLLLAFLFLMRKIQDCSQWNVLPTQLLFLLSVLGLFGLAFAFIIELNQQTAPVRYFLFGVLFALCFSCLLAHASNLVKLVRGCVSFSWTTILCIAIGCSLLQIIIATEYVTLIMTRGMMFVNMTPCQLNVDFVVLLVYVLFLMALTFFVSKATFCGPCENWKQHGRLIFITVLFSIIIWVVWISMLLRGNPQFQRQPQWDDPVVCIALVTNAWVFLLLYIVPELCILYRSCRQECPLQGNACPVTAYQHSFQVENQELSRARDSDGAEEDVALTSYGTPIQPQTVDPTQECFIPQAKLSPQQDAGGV
reported_endpoint: % Positive (%)
The figure you give is taken to be in %; do not add the unit.

[Q] Returns the measured % Positive for the input binder. Input: 110B4H5 (antibody, V domains shown, Mouse monoclonal antibody from hybridoma subclone) VH: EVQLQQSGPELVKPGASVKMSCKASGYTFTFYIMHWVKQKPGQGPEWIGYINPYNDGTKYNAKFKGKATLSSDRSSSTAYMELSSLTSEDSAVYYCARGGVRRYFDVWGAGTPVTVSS VL: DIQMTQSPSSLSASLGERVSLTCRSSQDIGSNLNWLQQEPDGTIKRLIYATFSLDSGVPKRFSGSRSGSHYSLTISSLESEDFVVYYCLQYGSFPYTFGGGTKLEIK
[A] 98.2

[Q] Returns the measured % Positive for the input binder. Input: 36A3G8 (antibody, V domains shown, Mouse monoclonal antibody from hybridoma subclone) VH: QVQLQQSGAELARPGASVKMSCKASGYTFTTYTMHWIKQRPGQDLEWIGFINPSSGYTKYNQNFKDKATLTADKSSTTAYMQLNSLTSEDSAVYYCASPYGNIYFDVWGTGTTVTVSS VL: DIVMTQSQKFMSTAVGDRVSITCKASQNVGTAVAWYQQKPGQSPKLLIYSASNRYTGVPDRFTGSGSGTDFTLTISNMQSEDLADYFCQQYSSYPLTFGAGTKLELK
[A] 96.3

[Q] Returns the measured % Positive for the input binder. Input: 83A9B8 (antibody, V domains shown, Mouse monoclonal antibody from hybridoma subclone) VH: EVQLQQSGPELVKPGASVKMSCKASGYTFSNYVIHWVKQKPGQGLEWIGYFNPYNDGSKYNEKFKGKATLTSDKSSSTAYMELSSLTSEDSAVYYCARGGVRRYFDVWGAGTTVTVSS VL: DIQMTQSPSSLSASLGERVSLTCRASQDIGDNLNWLQQEPDGTIKRLIYATFSLDSGVPKRFSGSRSGSVYSLTISRLESEDFVDYFCLHYASFPYTFGGGTKLEIK
[A] 98.3

[Q] Returns the measured % Positive for the input binder. Input: 116G1G4 (antibody, V domains shown, Mouse monoclonal antibody from hybridoma subclone) VH: EVQLQQSGPELVKPGASVKMSCKASGYTFTYYIMHWVKQEPGQGLQWIGYINPYNDGAYYSARFKGKATLTSDKSSSTAYMDLTSLTSEDSAVYYCARGGVRRYFDVWGAGTTVTVSS VL: DIQMTQSPSSLSASLGERVILTCRASQDIGSNLIWLQQKPDGTIKRLIYATFNLDSGVSKRFSGSRSGSDYSLTISSLDSEDFVDYYCLQYASSPYTFGGGTKLEIK
[A] 97.4
